- Method description: self-splicing fitness, log relative to wild type (ln ratio); higher = more splicing; Tetrahymena group I intron in knt gene, E. coli kanamycin selection, DiMSum; sequences stand for … in CUCUCU…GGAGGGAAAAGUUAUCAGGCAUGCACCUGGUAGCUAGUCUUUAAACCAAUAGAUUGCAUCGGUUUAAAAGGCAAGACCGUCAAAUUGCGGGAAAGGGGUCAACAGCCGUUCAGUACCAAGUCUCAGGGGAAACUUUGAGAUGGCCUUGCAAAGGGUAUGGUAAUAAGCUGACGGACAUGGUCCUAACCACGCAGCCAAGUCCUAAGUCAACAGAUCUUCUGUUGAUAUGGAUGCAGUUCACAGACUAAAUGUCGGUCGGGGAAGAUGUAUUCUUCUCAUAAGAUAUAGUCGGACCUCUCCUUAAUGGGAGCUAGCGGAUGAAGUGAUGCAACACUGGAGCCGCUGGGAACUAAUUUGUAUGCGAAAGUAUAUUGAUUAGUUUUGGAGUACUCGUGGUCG;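 further: selection with 25 µg/mL kanamycin versus none on LB agar overnight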
- Test conditions: 30 °C
Categories are defined by ranges of self-splicing fitness (ln), namely bottom = under -3, middle = from -3 up to -1, top = -1 and over

As a guide, the following entries are already answered.
CAGGAGCAAUAUUACGGGCA	middle
GAAAAGCAAUAUUACGCGUG	middle
UUCAAGCAAUAUUACGCUGA	middle
GCAGAGCAAUAUUACGGGCU	middle

INPUT: The entry to classify is `GAACAGCAAUAUUACGAUAA` ; which class holds it?
OUTPUT: top

INPUT: The entry to classify is `UUCGAGCAAUAUUACGAGAG` ; which class holds it?
OUTPUT: bottom

INPUT: The entry to classify is `AGCAAGCAAUAUUACGAAGA` ; which class holds it?
OUTPUT: bottom

INPUT: The entry to classify is `AUUCAGCAAUAUUACGCCAA` ; which class holds it?
OUTPUT: middle

INPUT: The entry to classify is `GAUCAGCAAUAUUACGUUAU` ; which class holds it?
OUTPUT: middle

INPUT: The entry to classify is `UAUGAGCAAUAUUACGUCAU` ; which class holds it?
OUTPUT: bottom

INPUT: The entry to classify is `ACUGAGCAAUAUUACGUUAU` ; which class holds it?
OUTPUT: bottom

====

- Method description: self-splicing fitness, log relative to wild type (ln ratio); higher = more splicing; Tetrahymena group I intron in knt gene, E. coli kanamycin selection, DiMSum; sequences stand for … in CUCUCU…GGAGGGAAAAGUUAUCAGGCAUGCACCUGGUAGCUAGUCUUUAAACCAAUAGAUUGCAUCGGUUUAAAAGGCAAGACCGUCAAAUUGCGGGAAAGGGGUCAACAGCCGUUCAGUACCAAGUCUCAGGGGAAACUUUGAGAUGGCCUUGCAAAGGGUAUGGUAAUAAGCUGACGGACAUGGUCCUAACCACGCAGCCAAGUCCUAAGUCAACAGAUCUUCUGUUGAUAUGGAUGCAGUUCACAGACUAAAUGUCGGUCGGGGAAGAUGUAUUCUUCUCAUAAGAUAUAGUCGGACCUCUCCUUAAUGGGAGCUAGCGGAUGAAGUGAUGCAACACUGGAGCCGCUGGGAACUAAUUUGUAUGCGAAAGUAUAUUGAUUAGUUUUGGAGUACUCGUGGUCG
- Test conditions: 30 °C
Observed property: self-splicing fitness (ln)
# output: bare number, no unit

Use the examples below as a reference point.
GAACAGCAAUAUUACGUGUA	-1.58
GAUUAGCAAUAUUACGAAGU	-2.54
GUCCAGCAAUAUUACGUAUC	-0.611
UAGCAGCAAUAUUACGCCUG	-1.79
UGUUAGCAAUAUUACGGUUC	-1.02
CCAAAGCAAUAUUACGUGAU	-3.5
CAACAGCAAUAUUACGAGGC	-3.79
UCUCAGCAAUAUUACGUAAC	-2.74

Now look at this entry.
INPUT: Query: self-splicing fitness (ln); subject: `UUAGAGCAAUAUUACGCGCA`
OUTPUT: -0.808
